Test system: panel of 140 standard cancer cell lines
experiment summary: ProliFiler-140 cancer cell line screen (CellTiterGlo, 72 h)
Format: cell-based
assay conditions: Homo sapiens, K562, read-out: IC50 [M] (ProliFiler-140), K562 (Blood)
reported endpoint: IC50 (M)
Numbers only here, please. The scale is M.

*Q* Fill blank: measured IC50 of the compound COc1cc2cc(C(=O)N3C[C@@H](CCl)c4c3cc(OC(=O)N3CCN(C(=O)CCC(=O)N5CCN(C)CC5)[C@H]5CSSC[C@H]53)c3ccccc43)[nH]c2c(OC)c1OC [P-SS66C-CBI-TMI] is ____.
*A* 1.3e-07
